Field pKi: reported value for UniProt:P14416; entries drawn from several documents.
pKi: −log10 of the molar value.

>  <molecule>
O=c1ccc2ccc(OCCCN3CCN(c4ccccc4)CC3)cc2o1

>  <comparison-operator>
=

>  <pKi>
7.80

$$$$
>  <molecule>
CC1(c2ccc(F)cc2)NC(=O)N(CC(O)CN2CCN(c3cccc4ccccc34)CC2)C1=O (stereo not drawn)

>  <comparison-operator>
=

>  <pKi>
6.53

$$$$
>  <molecule>
CCc1cc(Cl)c(OC)c(C(=O)NC[C@@H]2CCCN2CCCCNC(=O)c2cc3ccccc3o2)c1O

>  <comparison-operator>
=

>  <pKi>
7.56

$$$$
>  <molecule>
O=C(NCN1CCN(c2ccccc2Cl)CC1)c1ccc(Cl)cc1

>  <comparison-operator>
=

>  <pKi>
7.18

$$$$
>  <molecule>
CCc1cc(OC)ccc1C1Cc2ccccc2CN1C (stereo not drawn)

>  <comparison-operator>
<

>  <pKi>
5.00

$$$$
>  <molecule>
COc1ccccc1N1CCN(CCCCc2cc(-c3ccccc3)no2)CC1

>  <comparison-operator>
=

>  <pKi>
5.76

$$$$
>  <molecule>
Cc1ccc2c(OCCN3CCC(Cc4cccc(N5CCCS5(=O)=O)c4)CC3)cccc2n1

>  <comparison-operator>
=

>  <pKi>
6.30

$$$$
>  <molecule>
COc1ccccc1/C=C/C(=O)NCCCCN1CCN(c2ccccc2OC)CC1

>  <comparison-operator>
=

>  <pKi>
7.85

$$$$
>  <molecule>
COc1ccccc1N1CCCN(CCCCNC(=O)c2cc3ccccc3s2)CC1

>  <comparison-operator>
=

>  <pKi>
6.90

$$$$
>  <molecule>
Cc1cc(C)c2c(N)c(C(=O)NCCCN3CCC(O)(c4ccc(Cl)cc4)CC3)sc2n1

>  <comparison-operator>
=

>  <pKi>
5.77

$$$$
>  <molecule>
CC(C)CS(=O)(=O)n1ccc2c(-c3ccccc3)cc(N3CCN(C)CC3)nc21

>  <comparison-operator>
=

>  <pKi>
6.26

$$$$
>  <molecule>
CCCN1CCC[C@H]1CNC(=O)c1c(O)c(CC)cc(Cl)c1OC

>  <comparison-operator>
=

>  <pKi>
9.16

$$$$
>  <molecule>
COc1ccccc1N1CCCN(CCCCNC(=O)c2ccc(-c3ccc(F)cc3)s2)CC1

>  <comparison-operator>
=

>  <pKi>
6.55

$$$$
>  <molecule>
COc1cccc2[nH]cc(CCNCc3ccc(-c4ccc(O)cc4)o3)c12

>  <comparison-operator>
=

>  <pKi>
6.75

$$$$
>  <molecule>
O=C(NCCCCN1CCN(Cc2ccccc2)CC1)c1cc2ccccc2o1

>  <comparison-operator>
<

>  <pKi>
6.00

$$$$
>  <molecule>
CN1CCc2ccccc2Cc2ccc(O)c(Cl)c2CC1

>  <comparison-operator>
=

>  <pKi>
8.45

$$$$
>  <molecule>
COc1ccc(-c2cc(CCCCN3CCN(c4ccccc4C)CC3)on2)cc1OC

>  <comparison-operator>
=

>  <pKi>
5.85

$$$$
>  <molecule>
CN1CCN(Cc2ccc(OCCCCN3CCC(c4noc5cc(F)ccc45)CC3)cc2)CC1

>  <comparison-operator>
=

>  <pKi>
8.72

$$$$
>  <molecule>
CN[C@H]1c2c(ccc3c2ccn3S(=O)(=O)c2ccccc2)[C@H]1CCO (relative stereo)

>  <comparison-operator>
<

>  <pKi>
5.00

$$$$
>  <molecule>
COc1ccccc1N1CCN(CCCCCC(=O)NCc2ccccc2)CC1

>  <comparison-operator>
=

>  <pKi>
6.65

$$$$
>  <molecule>
COc1ccccc1N1CCN(C2CC3CC(NC(=O)c4ccc5ccccc5c4)CC3C2)CC1 (stereo not drawn)

>  <comparison-operator>
=

>  <pKi>
6.75

$$$$
>  <molecule>
CCCN(CCC)C1COc2c(cccc2C(=O)c2ccc(OC)cc2)C1 (stereo not drawn)

>  <comparison-operator>
<

>  <pKi>
6.00

$$$$
>  <molecule>
Cc1nn(C2CCN(Cc3cccc(Cl)c3)CC2)cc1-c1ccccc1

>  <comparison-operator>
=

>  <pKi>
7.82

$$$$
>  <molecule>
COc1cccc2cc(C(=O)NCCCCN3CCN(c4nc5ccccc5[nH]4)CC3)oc12

>  <comparison-operator>
<

>  <pKi>
6.12

$$$$
>  <molecule>
c1cnc(N[C@H]2CC[C@H](CCN3CCN(c4ccncc4)CC3)CC2)nc1

>  <comparison-operator>
=

>  <pKi>
5.32

$$$$
>  <molecule>
O=C1CCc2ccccc2N1CCN1CCN(c2ccccc2)CC1

>  <comparison-operator>
=

>  <pKi>
4.89

$$$$
>  <molecule>
Fc1ccccc1N1CCN(CCCCc2cc(/C=C/c3ccccc3)no2)CC1

>  <comparison-operator>
=

>  <pKi>
6.23

$$$$
>  <molecule>
Oc1ccc(-c2ccc(CNCCc3c[nH]c4cc(F)ccc34)o2)cc1

>  <comparison-operator>
=

>  <pKi>
6.35

$$$$
>  <molecule>
FC(F)(F)c1cccc(N2CCN(CCCCNc3nccc4ccccc34)CC2)c1

>  <comparison-operator>
=

>  <pKi>
7.24

$$$$
>  <molecule>
Cc1ccn2cc(-c3ccc(OCCCCN4CCN(c5cccc(Cl)c5Cl)CC4)cc3)nc2c1

>  <comparison-operator>
=

>  <pKi>
6.95

$$$$
>  <molecule>
CCN(CC)[C@H]1[C@H](CO)[C@@H]2CN(Cc3ccccc3)[C@@H](c3ccccn3)[C@@H]21

>  <comparison-operator>
=

>  <pKi>
4.92

$$$$
>  <molecule>
CCCN1CCO[C@@H]2c3cc(C(=O)N(C)C)ccc3CC[C@H]21

>  <comparison-operator>
=

>  <pKi>
5.73

$$$$
>  <molecule>
CCCN(CCc1ccc(NC(=O)CCC(=O)NCCOCCOCC(=O)NCCOCCOCC(=O)NCCCC[C@H](NC(C)=O)C(=O)NCCCC[C@H](NC(C)=O)C(=O)NCCCCCCNC(=O)c2nn(-c3ccc(Cl)cc3Cl)c(-c3ccc(Cl)cc3)c2C)cc1)C1CCc2c(O)cccc2C1 (stereo partly drawn)

>  <comparison-operator>
=

>  <pKi>
8.96

$$$$

###

pKi: −log10 of the molar value.
Field pKi: reported value for D(2) dopamine receptor (Homo sapiens, UniProt P14416); entries drawn from several documents.

>  <compound>
COc1ccc2onc(N3CCN(CCCCNC(=O)c4cc5cccc(OC)c5o4)CC3)c2c1

>  <comparison-operator>
<

>  <pKi>
6.12

$$$$
>  <compound>
N#Cc1ccc2c(c1)CCN(CC[C@H]1CC[C@H](NC(=O)c3ccc4c(c3)NC(=O)CO4)CC1)CC2

>  <comparison-operator>
=

>  <pKi>
6.10

$$$$
>  <compound>
CC(Oc1ccccc1Cl)c1nc(N)nc(N2CCN(C)CC2)n1 (stereo not given)

>  <comparison-operator>
=

>  <pKi>
6.00

$$$$
>  <compound>
Cc1cc(C)c2c(N)c(C(=O)NCCN3CCC(O)(c4ccc(Cl)cc4)CC3)sc2n1

>  <comparison-operator>
=

>  <pKi>
6.04

$$$$
>  <compound>
COc1ccc2onc(N3CCN(CCCCNC(=O)c4ccc(N5CCOCC5)cc4)CC3)c2c1

>  <comparison-operator>
<

>  <pKi>
6.12

$$$$
>  <compound>
COc1ccc(-c2ccc(CNCCc3c[nH]c4ccc(OC)cc34)o2)cc1

>  <comparison-operator>
=

>  <pKi>
5.86

$$$$
>  <compound>
COc1ccc2onc(N3CCN(CCCCNC(=O)c4cc5ccccc5oc4=O)CC3)c2c1

>  <comparison-operator>
<

>  <pKi>
6.12

$$$$
>  <compound>
COc1ccc2c(c1)Cc1ccccc1CCCN(C)CC2

>  <comparison-operator>
=

>  <pKi>
5.86

$$$$
>  <compound>
COc1ccccc1N1CCN(CCCCCC(=O)N2Cc3ccccc3C2)CC1

>  <comparison-operator>
=

>  <pKi>
6.14

$$$$
>  <compound>
CS(=O)(=O)Nc1cc(OCCNCc2cccs2)ccc1F

>  <comparison-operator>
<

>  <pKi>
6.52

$$$$

###

Field pKi: reported value for D(2) dopamine receptor (Homo sapiens); entries drawn from several documents.
pKi: −log10 of the molar value.

>  <line-notation>
O=S(=O)(c1cccc2ncccc12)N1CCC(CCN2CCN(c3cccc(C(F)(F)F)c3)CC2)CC1

>  <pKi>
6.83

$$$$
>  <line-notation>
C[C@H]1C=C(C2=Nc3ccccc3Nc3ccc(Cl)cc32)CCN1C

>  <pKi>
6.91

$$$$
>  <line-notation>
CC(C)(C)OC(=O)NC[C@H]1CC[C@H](CN2CCN(c3cccc(Cl)c3Cl)CC2)CC1

>  <pKi>
6.83

$$$$

###

Field pKi: reported value for D(2) dopamine receptor (Homo sapiens); entries drawn from several documents.
pKi: −log10 of the molar value.

>  <line-notation>
CC(C)c1ccccc1N1CCN(CCCCCC(=O)NCc2ccc(C#N)cc2)CC1

>  <pKi>
7.70

$$$$
>  <line-notation>
COc1ccc2onc(N3CCN(CCCCNC(=O)c4ccc5c(c4)OCO5)CC3)c2c1

>  <pKi>
< 6.12

$$$$
>  <line-notation>
O=S(=O)(Nc1ccc([C@]23CNC[C@H]2C3)cc1)c1ccc(C(F)(F)F)cc1

>  <pKi>
< 5.50

$$$$
>  <line-notation>
COc1ccc2onc(N3CCN(CCCCNC(=O)c4cccc(-n5ccnc5)c4)CC3)c2c1

>  <pKi>
< 6.00

$$$$
